Tested on: p53R2 (RE)
Where a name gives a salt, the structure may show the parent alone.
measurement.type: induction of Renilla luciferase

OC[C@@H](O)[C@@H](O)[C@H](O)[C@H](O)CO :: no induction
[H]/N=C(/N)N/C(=N/[H])NCCc1ccccc1 [Phenformin, phenformin hydrochloride] :: no induction
